TARGET_UNDER_TEST: 5-hydroxytryptamine receptor 4 (Cavia porcellus)
Sequence (O70528 whole entry): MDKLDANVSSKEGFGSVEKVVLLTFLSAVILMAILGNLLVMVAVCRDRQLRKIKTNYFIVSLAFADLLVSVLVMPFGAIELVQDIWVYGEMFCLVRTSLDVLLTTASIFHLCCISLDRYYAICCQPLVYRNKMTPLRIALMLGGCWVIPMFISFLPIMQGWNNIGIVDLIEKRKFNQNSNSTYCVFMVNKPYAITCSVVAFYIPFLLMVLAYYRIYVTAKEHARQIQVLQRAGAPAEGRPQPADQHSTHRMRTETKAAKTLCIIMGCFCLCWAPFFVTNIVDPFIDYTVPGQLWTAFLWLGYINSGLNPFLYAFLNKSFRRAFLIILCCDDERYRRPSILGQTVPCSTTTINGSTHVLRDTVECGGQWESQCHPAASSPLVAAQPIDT
ASSAY_TEXT: Displacement of [3H]-GR113808 from guinea pig brain 5HT4 receptor in presence of serotonin incubated for 30 mins
Assay type: tissue-based
RUN_PARAMETERS: read-out: Ki
Rule: Ki below 20 nM gives class 1, anything at or above gives class 0.

Use the examples below as a reference point.
- MOLECULE_SMILES: "COc1cc(N)c(Cl)cc1C(=O)CCC1CCN(CCNS(=O)(=O)c2ccc(C)cc2)CC1"
  CAT: "class 1"
- MOLECULE_SMILES: "COc1ccc(S(=O)(=O)NCCN2CCC(CCC(=O)c3cc(Cl)c(N)cc3OC)CC2)cc1Br"
  CAT: "class 0"
- MOLECULE_SMILES: "COc1cc(N)c(Cl)cc1C(=O)CCC1CCN(CCNS(=O)(=O)c2ccc(N)c(Br)c2)CC1"
  CAT: "class 1"
- MOLECULE_SMILES: "COc1ccc(S(=O)(=O)NCCN2CCC(CCC(=O)c3cc(Cl)c(N)cc3OC)CC2)cc1"
  CAT: "class 1"
- MOLECULE_SMILES: "COc1cc(N)c(Cl)cc1C(=O)CCC1CCN(CCNS(=O)(=O)c2ccc3c(c2)N(C)CCO3)CC1"
  CAT: "class 0"
- MOLECULE_SMILES: "COc1ccc(S(=O)(=O)NCCN2CCC(CCC(=O)c3cc(Cl)c(N)cc3OC)CC2)c(OC)c1"
  CAT: "class 1"

Take the compound COc1ccc(S(=O)(=O)NCCN2CCC(CCC(=O)c3cc(Cl)c(N)cc3OC)CC2)cc1Cl and say whether its Ki is less than 20 nM.
class 0

Below 20 nM on Ki? Entry COc1cc(N)c(Cl)cc1C(=O)CCC1CCN(CCNS(=O)(=O)c2ccc3c(c2)NC(=O)CO3)CC1
class 1

Lab note: Ki threshold 20 nM. Does this compound come in strictly under it? COc1cc(N)c(Cl)cc1C(=O)CCC1CCN(CCNS(=O)(=O)c2ccc(OC)c(N3CCN(C)CC3)c2)CC1
class 1

Determine whether this compound shows Ki lower than 20 nM (ties excluded): COc1ccc(S(=O)(=O)NCCN2CCC(CCC(=O)c3cc(Cl)c(N)cc3OC)CC2)cc1OC
class 1

Report whether reported Ki is lower than 20 nM (strictly) for COc1ccc(S(=O)(=O)NCCCN2CCC(CCC(=O)c3cc(Cl)c(N)cc3OC)CC2)cc1
class 0

Data origin, for the record: ChEMBL document CHEMBL4715730
